# Experimental Target: Bifunctional epoxide hydrolase 2 (Homo sapiens, UniProt P34913)
# Sequence (P34913 whole entry): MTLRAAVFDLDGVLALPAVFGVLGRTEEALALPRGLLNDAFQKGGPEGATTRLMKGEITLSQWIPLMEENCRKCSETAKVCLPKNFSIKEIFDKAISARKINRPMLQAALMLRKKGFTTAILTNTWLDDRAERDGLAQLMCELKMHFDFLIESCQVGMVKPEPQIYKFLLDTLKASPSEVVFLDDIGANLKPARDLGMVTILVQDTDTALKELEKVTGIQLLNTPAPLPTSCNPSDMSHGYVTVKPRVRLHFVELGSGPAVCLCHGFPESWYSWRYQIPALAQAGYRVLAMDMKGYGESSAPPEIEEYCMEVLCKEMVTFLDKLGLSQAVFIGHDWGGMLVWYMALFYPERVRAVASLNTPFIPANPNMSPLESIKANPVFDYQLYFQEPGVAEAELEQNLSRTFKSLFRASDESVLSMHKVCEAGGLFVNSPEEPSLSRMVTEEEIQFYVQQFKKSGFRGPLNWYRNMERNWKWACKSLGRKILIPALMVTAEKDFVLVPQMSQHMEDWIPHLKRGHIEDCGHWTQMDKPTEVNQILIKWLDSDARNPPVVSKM
# Measurement Protocol: Inhibition of recombinant soluble epoxide hydrolase (unknown origin) using [3H]1,3-diphenyl-trans-propene oxide as substrate assessed as inhibition constant incubated for 5 mins

{"columns": ["Substance Smiles", "Ki"],
 "data": [
  ["CCCCCCCCCCCCNC(=O)NC1CCCCC1", "7 nM"]
]}
